From: patent US20240225053A9

system: Clostridium perfringens SM101 (CPE toxin producer); format: cell-based; parameters: key: Good: Agglomeration effect observed; Poor: No agglomeration effect observed; settings: Table 2-2; 500 mM, without AG; 8 hours

smilesStructure: [Cl-].[Cl-].[Mg+2]
Agglomeration: Poor
//
smilesStructure: [Ca+2].[Cl-].[Cl-]
Agglomeration: Good
//
smilesStructure: [Cl][Fe][Cl]
Agglomeration: Good
//
smilesStructure: [Cl-].[K+]
Agglomeration: Poor

---

system: Clostridium perfringens ATCC10873; assay type: cell-based; parameters: key: Good: Those in which agglomeration observed under upright microscope; Poor: Those in which no agglomeration observed under upright microscope; settings: Table 4; 500 mM, without AG
metricName: Agglomeration

smilesStructure: [Ca+2].[Cl-].[Cl-]
readoutValue: Good

smilesStructure: [Cl-].[Cl-].[Mg+2]
readoutValue: Poor

smilesStructure: [Cl][Fe][Cl]
readoutValue: Good

smilesStructure: [Cl-].[K+]
readoutValue: Poor

---

test system: Clostridium perfringens SM101 (CPE toxin producer); format: cell-based; conditions: 500 mM, without AG; 8 hours

smilesStructure: [Cl][Fe][Cl]
Shape: Rod-shaped

smilesStructure: [Ca+2].[Cl-].[Cl-]
Shape: Rod-shaped

smilesStructure: [Cl-].[Cl-].[Mg+2]
Shape: Rod-shaped
